System: SK-MEL-28 melanoma
Experiment: NCI-60 one-dose screen, 48 h
Settings: 10 µM unless noted
This is part of a sample that, as a whole, favours compounds with a hit. Of some 83,000 tested, about 20% had one in any assay. Calls of active or inactive are those of the source. Rule for the calls: active = growth percent below 10; inactive = the rest.
Choose one outcome from this list and give only that: true (1) = active, false (0) = inactive

Enquiry: Identify the outcome logged in this assay for the compound shown: CC(C)=CCCC(C)c1ccc(C)c2c1OCN(CC1CCNCC1)C2 (configuration not stated)
Return: false (0)

Enquiry: Identify the outcome logged in this assay for the compound shown: Cc1nn(-c2ccccc2)cc1/C=C1\SC(N2CCCCC2)=NC1=O
Return: false (0)

Enquiry: Identify the outcome logged in this assay for the compound shown: CCOC(=O)Nc1ccc2c3c(cccc13)-c1ccccc1-2
Return: false (0)

Enquiry: Identify the outcome logged in this assay for the compound shown: COc1ccc2c(c1)C(=Nc1cc(OC)c(OC)c(OC)c1)C(=O)N2
Return: false (0)

Enquiry: Identify the outcome logged in this assay for the compound shown: COc1ccc2nc(NC(=O)CN3CCn4c(nnc4C(F)(F)F)C3)sc2c1
Return: false (0)

Enquiry: Identify the outcome logged in this assay for the compound shown: Cc1cc(C)c(C(=O)c2cccs2)c(C)c1
Return: false (0)

Enquiry: Identify the outcome logged in this assay for the compound shown: CC(=O)N1N=C(c2ccc3c(c2)OCO3)CC1c1c(C)nn(-c2ccccc2)c1N(C)Cc1ccccc1 (configuration not stated)
Return: false (0)

Enquiry: Identify the outcome logged in this assay for the compound shown: O=C1/C(=C/c2ccccc2Cl)CCc2ccccc21
Return: false (0)

Enquiry: Identify the outcome logged in this assay for the compound shown: CCOc1cc(/C=C/C(=O)C(C(=O)/C=C/c2ccc(OC(=O)CNc3nc4ccccc4[nH]3)c(OCC)c2)C(=O)CNc2nc3ccccc3[nH]2)ccc1OC(=O)CNc1nc2ccccc2[nH]1
Return: true (1)

Enquiry: Identify the outcome logged in this assay for the compound shown: CC(=O)Nc1c(Cl)cc2c(c1Cl)Cc1ccccc1-2
Return: false (0)

Enquiry: Identify the outcome logged in this assay for the compound shown: CC1CC=CCC1C1OCC(C)(C)CO1 (configuration not stated)
Return: false (0)

Enquiry: Identify the outcome logged in this assay for the compound shown: CCCCc1n(Cc2ccc3ccccc3c2)cc[n+]1Cc1ccc2ccccc2c1
Return: true (1)

Enquiry: Identify the outcome logged in this assay for the compound shown: Cc1ccccc1NC(=O)NC(CC(N)=O)c1ccc2c(c1)nc(-c1cccc(Oc3ccc(C(C)(C)C)cc3)c1)n2CCCN1CCCCC1C (configuration not stated)
Return: true (1)

Enquiry: Identify the outcome logged in this assay for the compound shown: NS(=O)(=O)c1ccc(-n2ncc3c(SCc4ccccc4)ncnc32)cc1
Return: false (0)

Enquiry: Identify the outcome logged in this assay for the compound shown: O=C1CSC(c2ccccc2O)N1c1nnc(Cn2ccnc2)o1 (configuration not stated)
Return: false (0)

Enquiry: Identify the outcome logged in this assay for the compound shown: CCCCN=C(N)c1ccc(OCCSCCOc2ccc(C(N)=NCCCC)cc2)cc1
Return: false (0)

Enquiry: Identify the outcome logged in this assay for the compound shown: O[N+]1=CC=CCC1=S.On1ccccc1=S.[Zn]
Return: true (1)

Enquiry: Identify the outcome logged in this assay for the compound shown: COc1ccc([N+](=O)[O-])c(S(=O)(=O)c2ccc(Cl)cc2)n1
Return: false (0)

Enquiry: Identify the outcome logged in this assay for the compound shown: COc1ccc2c(c1)CC[C@@H]1[C@@H]2CC[C@]2(C)[C@@H](O)C(=O)C[C@@H]12
Return: false (0)

Enquiry: Identify the outcome logged in this assay for the compound shown: C=C1CC[C@@H]2[C@](C)(COC(C)=O)[C@H](OC(C)=O)CC[C@@]2(C)[C@@H]1CC(NCc1ccccc1)C1=CCOC1=O (some centres not stated)
Return: false (0)

Enquiry: Identify the outcome logged in this assay for the compound shown: CCOC(=O)CCC(=O)O[C@H]1[C@H](O[C@@H]2[C@@H](C)[C@H](O[C@H]3C[C@@](C)(OC)[C@@H](O)[C@H](C)O3)[C@@H](C)C(=O)O[C@H](CC)[C@@](C)(O)[C@H](O)[C@@H](C)C(=O)[C@H](C)C[C@@]2(C)O)O[C@H](C)C[C@@H]1N(C)C
Return: false (0)

Enquiry: Identify the outcome logged in this assay for the compound shown: COC(=O)c1c(NC(=O)CSc2nnnn2-c2ccc(OC)cc2)sc(C)c1C
Return: false (0)
